EXPERIMENTAL SYSTEM: ALK (baculovirus expressed human ALK kinase domain F1098-K1410) (Homo sapiens, UniProt Q9UM73)
Construct: human ALK kinase domain F1098-K1410; made in house
Sequence (Q9UM73 1098-1410): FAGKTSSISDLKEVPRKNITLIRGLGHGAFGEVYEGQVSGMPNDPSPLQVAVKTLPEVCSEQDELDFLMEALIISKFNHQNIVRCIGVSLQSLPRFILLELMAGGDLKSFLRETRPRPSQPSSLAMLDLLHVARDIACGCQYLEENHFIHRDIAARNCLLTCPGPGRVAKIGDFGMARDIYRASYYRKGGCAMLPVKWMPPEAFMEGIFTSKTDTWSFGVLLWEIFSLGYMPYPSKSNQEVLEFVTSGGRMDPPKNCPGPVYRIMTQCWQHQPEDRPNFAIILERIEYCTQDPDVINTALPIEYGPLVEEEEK
EXPERIMENTAL PROTOCOL: biochemical
EXPERIMENTAL PARAMETERS: 1 μM ATP, 4 μM poly-AEKY, 12 nM ALK, 2 hours at ambient temperature; read-out: ALK IC50
Entries annotated with measured IC50

COMPOUND	IC50
CC(NC(=O)c1csc(CNC(=O)COc2ccc(OC(F)(F)F)cc2)n1)c1cccc2ccccc12 (stereo not drawn)	0.05 to 0.5 µM
CC1CCC(NC(=O)c2csc(CNC(=O)COc3ccc(OC(F)(F)F)cc3)n2)CC1 (stereo not drawn)	0.05 to 0.5 µM
O=C(COc1ccc(OC(F)(F)F)cc1)NCc1nc(C(=O)NCCc2ccc(F)cc2)cs1	< 0.05 µM
COCC(C)NC(=O)c1csc(CNC(=O)COc2ccc(OC(F)(F)F)cc2)n1 (stereo not drawn)	0.5 to 2 µM
CC(C)CNC(=O)c1csc(CNC(=O)COc2ccc(OC(F)(F)F)cc2)n1	0.05 to 0.5 µM

Read off the recorded IC50 for Cc1ccc(CNC(=O)c2csc(CNC(=O)COc3ccc(OC(F)(F)F)cc3)n2)cc1
0.05 to 0.5 µM

Read off the recorded IC50 for CCCCOCCCNC(=O)c1csc(CNC(=O)COc2ccc(OC(F)(F)F)cc2)n1
0.05 to 0.5 µM

Read off the recorded IC50 for CCOc1ccccc1CCNC(=O)c1csc(CNC(=O)COc2ccc(OC(F)(F)F)cc2)n1
0.05 to 0.5 µM

Read off the recorded IC50 for O=C(COc1ccc(OC(F)(F)F)cc1)NCc1nc(C(=O)NCC(c2ccccc2)c2ccccc2)co1
0.5 to 2 µM

Read off the recorded IC50 for COc1cccc(CNC(=O)c2csc(CNC(=O)c3cccnc3Oc3ccc(Cl)cc3)n2)c1OC
0.05 to 0.5 µM

---

EXPERIMENTAL SYSTEM: ALK (baculovirus expressed human ALK kinase domain F1098-K1410) (Homo sapiens)
Construct: human ALK kinase domain F1098-K1410; made in house
EXPERIMENTAL PROTOCOL: biochemical
EXPERIMENTAL PARAMETERS: 1 μM ATP, 4 μM poly-AEKY, 12 nM ALK, 2 hours at ambient temperature; read-out: ALK IC50
Entries annotated with measured IC50

Sample answers from the record:
COMPOUND	IC50
O=C(COc1ccc(OC(F)(F)F)cc1)NCc1nc(C(=O)NCCCN2CCOCC2)cs1 [Entry 267]	500 to 2000 nM
CC(=O)NCCNC(=O)c1csc(CNC(=O)COc2ccc(OC(F)(F)F)cc2)n1 [Entry 281]	500 to 2000 nM
CCc1ccc(OCC(=O)NCc2nc(C(=O)NCCc3cccc(Cl)c3)cs2)cc1 [Entry 111]	50 to 500 nM
COc1ccccc1CNC(=O)c1coc(CNC(=O)COc2ccc(OC(F)(F)F)cc2)n1 [Entry 203]	50 to 500 nM
Cc1ccccc1CNC(=O)c1coc(CNC(=O)COc2ccc(OC(F)(F)F)cc2)n1 [Entry 288]	500 to 2000 nM
O=C(COc1ccc(OC(F)(F)F)cc1)NCc1nc(C(=O)NCCc2cccc(F)c2)cs1 [Entry 14]	< 50 nM
CCOc1cccc(CCNC(=O)c2csc(CNC(=O)COc3ccc(OC(F)(F)F)cc3)n2)c1 [Entry 28]	50 to 500 nM
O=C(COc1ccc(OC(F)(F)F)cc1)NCc1nc(C(=O)NCCSCc2c(Cl)cccc2Cl)cs1 [Entry 93]	50 to 500 nM

Enter IC50 (test system ALK (baculovirus expressed human ALK kinase domain F1098-K1410) (Homo sapiens)) for O=C(CNC(=O)c1ccc([N+](=O)[O-])cc1)NCc1nc(C(=O)NCCc2cccc(Cl)c2)cs1 [Entry 136]
50 to 500 nM

Enter IC50 (test system ALK (baculovirus expressed human ALK kinase domain F1098-K1410) (Homo sapiens)) for CSCC[C@H](NC(=O)c1ccccc1)C(=O)NCc1nc(C(=O)NCCc2cccc(Cl)c2)cs1 [Entry 221]
500 to 2000 nM

Enter IC50 (test system ALK (baculovirus expressed human ALK kinase domain F1098-K1410) (Homo sapiens)) for O=C(COc1ccc(OC(F)(F)F)cc1)NCc1nc(C(=O)NC23C[C@H]4C[C@@H](C2)C[C@@H](C3)C4)cs1 [Entry 23]
< 50 nM

Enter IC50 (test system ALK (baculovirus expressed human ALK kinase domain F1098-K1410) (Homo sapiens)) for O=C(COc1ccc(OC(F)(F)F)cc1)NC(Cc1ccccc1)c1nc(C(=O)NCCc2cccc(Cl)c2)cs1 (centres unmarked) [Entry 131]
50 to 500 nM

Enter IC50 (test system ALK (baculovirus expressed human ALK kinase domain F1098-K1410) (Homo sapiens)) for COc1ccc(CCNC(=O)c2coc(CNC(=O)COc3ccc(OC(F)(F)F)cc3)n2)cc1OC [Entry 155]
50 to 500 nM

Enter IC50 (test system ALK (baculovirus expressed human ALK kinase domain F1098-K1410) (Homo sapiens)) for C[C@@H]1[C@@H](NC(=O)c2csc(CNC(=O)COc3ccc(OC(F)(F)F)cc3)n2)C[C@H]2C[C@@H]1C2(C)C [Entry 12]
< 50 nM

Enter IC50 (test system ALK (baculovirus expressed human ALK kinase domain F1098-K1410) (Homo sapiens)) for CC(NC(=O)COc1ccc(OC(F)(F)F)cc1)c1nc(C(=O)NCCc2cccc(Cl)c2)cs1 (centres unmarked) [Entry 1]
< 50 nM

Enter IC50 (test system ALK (baculovirus expressed human ALK kinase domain F1098-K1410) (Homo sapiens)) for O=C(COc1ccc(OC(F)(F)F)cc1)NCc1nc(C(=O)N[C@H]2CCC[C@@H]2OCc2ccccc2)cs1 [Entry 103]
50 to 500 nM

---

EXPERIMENTAL SYSTEM: ALK (baculovirus expressed human ALK kinase domain F1098-K1410) (Homo sapiens)
Construct: human ALK kinase domain F1098-K1410; made in house
EXPERIMENTAL PROTOCOL: biochemical
pIC50: −log10 of the molar value.
ENDPOINT NAME: pIC50

Read off the recorded pIC50 for O=C(COc1ccc(OC(F)(F)F)cc1)NCc1nc(C(=O)NCCOc2ccccc2)cs1 [Entry 122]
6.30 to 7.30

---

EXPERIMENTAL SYSTEM: ALK (baculovirus expressed human ALK kinase domain F1098-K1410) (Homo sapiens)
Construct: human ALK kinase domain F1098-K1410; made in house
EXPERIMENTAL PROTOCOL: biochemical
EXPERIMENTAL PARAMETERS: 1 μM ATP, 4 μM poly-AEKY, 12 nM ALK, 2 hours at ambient temperature; read-out: ALK IC50
pIC50: −log10 of the molar value.
Entries annotated with measured pIC50

Sample answers from the record:
COMPOUND	pIC50
CC(C)c1ccc(CC(=O)NCc2nc(C(=O)NCCc3ccccc3F)cs2)cc1 [Entry 114]	6.30 to 7.30
CCCCOc1ccc(NC(=O)NCc2nc(C(=O)NCc3cccc(OC)c3OC)cs2)cc1 [Entry 248]	5.70 to 6.30
NC(=O)[C@H](Cc1ccccc1)NC(=O)c1csc(CNC(=O)COc2ccc(OC(F)(F)F)cc2)n1 [Entry 188]	6.30 to 7.30
O=C(COc1ccc(OC(F)(F)F)cc1)NCc1nc(C(=O)NCc2cc(Cl)cc(Cl)c2)cs1 [Entry 69]	6.30 to 7.30
CO[C@@H]1[C@@H](C)/C=C(\C)[C@H](OC(N)=O)[C@@H](OC)/C=C\C=C(/C)C(=O)NC2=CC(=O)C=C(C2=O)[C@H](OC)[C@@H](C)C[C@H]1OC [Entry 301, reference compound]	< 5.70

Enter pIC50 (test system ALK (baculovirus expressed human ALK kinase domain F1098-K1410) (Homo sapiens)) for O=C(COc1ccc(OC(F)(F)F)cc1)NCc1nc(C(=O)NCc2ccccn2)cs1 [Entry 190]
6.30 to 7.30

Enter pIC50 (test system ALK (baculovirus expressed human ALK kinase domain F1098-K1410) (Homo sapiens)) for O=C(COc1ccc(OC(F)(F)F)cc1)NCc1nc(C(=O)NCCc2ccccc2F)cs1 [Entry 5]
> 7.30

Enter pIC50 (test system ALK (baculovirus expressed human ALK kinase domain F1098-K1410) (Homo sapiens)) for COc1ccc(OCCNC(=O)c2csc(CNC(=O)COc3ccc(OC(F)(F)F)cc3)n2)cc1 [Entry 81]
6.30 to 7.30

Enter pIC50 (test system ALK (baculovirus expressed human ALK kinase domain F1098-K1410) (Homo sapiens)) for O=C(C/C=C/c1ccccc1)NCc1nc(C(=O)NCCc2ccccc2F)cs1 [Entry 276]
5.70 to 6.30

---

EXPERIMENTAL SYSTEM: ALK (baculovirus expressed human ALK kinase domain F1098-K1410) (Homo sapiens, UniProt Q9UM73)
Construct: human ALK kinase domain F1098-K1410; made in house
EXPERIMENTAL PROTOCOL: biochemical
EXPERIMENTAL PARAMETERS: 1 μM ATP, 4 μM poly-AEKY, 12 nM ALK, 2 hours at ambient temperature; read-out: ALK IC50
pIC50: −log10 of the molar value.
Entries annotated with measured pIC50

Sample answers from the record:
MOLECULE	pIC50
COc1ccccc1CNC(=O)c1csc(CNC(=O)Cc2ccc(C(C)C)cc2)n1	6.30 to 7.30
CCCCCC(C)NC(=O)c1csc(CNC(=O)COc2ccc(OC(F)(F)F)cc2)n1 (stereo not shown)	6.30 to 7.30
O=C(COc1ccc(OC(F)(F)F)cc1)NCc1nc(C(=O)NCCN2CCCCC2)cs1	5.70 to 6.30
O=C(COc1ccc(OC(F)(F)F)cc1)NCc1nc(C(=O)NCc2ccccc2Cl)co1	5.70 to 6.30
CCN(CCNC(=O)c1csc(CNC(=O)COc2ccc(OC(F)(F)F)cc2)n1)c1cccc(C)c1	6.30 to 7.30
Cc1cccc(CNC(=O)c2csc(CNC(=O)COc3ccc(OC(F)(F)F)cc3)n2)c1C	6.30 to 7.30
C[C@@H]1[C@H]2C[C@@H](C[C@H]1NC(=O)c1csc(CNC(=O)COc3ccc(OC(F)(F)F)cc3)n1)C2(C)C	6.30 to 7.30
COc1ccccc1CNC(=O)c1csc(CNC(=O)COc2ccc(OC(F)(F)F)cc2)n1	> 7.30
O=C(COc1ccc(OC(F)(F)F)cc1)NCc1nc(C(=O)NCc2ccc(F)c(Cl)c2)cs1	6.30 to 7.30
O=C(COc1ccc(OC(F)(F)F)cc1)NCc1nc(C(=O)NC(c2ccccc2)c2ccccc2)cs1	6.30 to 7.30

Please find the next molecule below.
Read off the recorded pIC50 for CCN(CC)C1CCN(C(=O)c2csc(CNC(=O)COc3ccc(OC(F)(F)F)cc3)n2)C1 (stereo not shown)
< 5.70
